B1: TPR t1 (parent)
chain: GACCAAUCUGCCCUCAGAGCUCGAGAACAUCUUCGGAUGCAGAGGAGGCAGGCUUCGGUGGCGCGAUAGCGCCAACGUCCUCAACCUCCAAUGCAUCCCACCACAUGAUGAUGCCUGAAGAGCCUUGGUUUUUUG

# Variants of: B1
# Assay Comment: polymerase ribozyme fitness, log enrichment relative to wild type (log ratio); higher = more active; in vitro selection for triplet polymerase activity
Each entry falls in a class defined on polymerase ribozyme fitness (log ratio); the bands are LOW (below -3), MID (-3 to below -0.8), HIGH (-0.8 or more)

{"columns": ["Sequence Change", "Assigned Category"],
 "data": [
  ["U30C C40U U55G", "LOW"],
  ["A2U C72A A83U C123G U126A", "HIGH"]
]}

Moving on to another variant below.
## Input GET /class?item= U9C C15G U106A
## Output MID

Origin of the recorded values: the RNAGym collection of RNA variant scans (doi:10.1073/pnas.2313332121)
